Could you please report measured kon for the items listed next?
Target: T1, Fibrinogen fragment D (human, UniProt P02671 130-216; P02675 164-491; P02679 114-432, limits assumed)
T1 construct: domain: Fragment D (or D-domain); Made by plasmin digestion of human fibrinogen and purified on GPRPAA beads; holds the C-terminal polymerization pockets without the N-terminal knobs; immobilised by amine coupling on the SPR chip; also called D-domain
T1 sequence (looked up) 1: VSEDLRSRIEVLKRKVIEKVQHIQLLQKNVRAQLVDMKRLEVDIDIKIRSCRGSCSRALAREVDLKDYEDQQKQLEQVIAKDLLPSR
T1 sequence (looked up) 2: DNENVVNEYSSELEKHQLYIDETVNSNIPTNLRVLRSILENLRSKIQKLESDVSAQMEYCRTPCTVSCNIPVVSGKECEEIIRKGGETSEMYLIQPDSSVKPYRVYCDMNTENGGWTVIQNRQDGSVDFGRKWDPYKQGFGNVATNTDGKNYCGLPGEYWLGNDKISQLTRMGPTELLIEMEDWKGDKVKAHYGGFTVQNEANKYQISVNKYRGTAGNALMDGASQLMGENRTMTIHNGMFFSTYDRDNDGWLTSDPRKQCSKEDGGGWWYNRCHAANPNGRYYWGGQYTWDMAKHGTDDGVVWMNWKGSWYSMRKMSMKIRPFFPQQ
T1 sequence (looked up) 3: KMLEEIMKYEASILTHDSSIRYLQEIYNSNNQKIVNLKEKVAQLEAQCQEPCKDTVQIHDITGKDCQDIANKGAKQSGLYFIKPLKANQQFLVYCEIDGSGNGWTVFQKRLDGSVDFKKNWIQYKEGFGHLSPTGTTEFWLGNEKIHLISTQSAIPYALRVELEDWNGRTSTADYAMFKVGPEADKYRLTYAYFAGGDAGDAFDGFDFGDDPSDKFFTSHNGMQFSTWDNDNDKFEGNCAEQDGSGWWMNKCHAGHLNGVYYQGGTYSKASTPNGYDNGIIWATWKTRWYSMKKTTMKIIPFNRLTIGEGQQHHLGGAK
Test: SPR, fragment D immobilised, Langmuir 1:1 model
Express it in M⁻¹ s⁻¹; write the number only.

Looking for the measured kon of GPRPPERC (Synthetic (GenScript); also called knob 'A' peptide) , can you help? 1290

Fill in: kon of GPRVVERC (Synthetic (GenScript); also called knob 'A' peptide) is ___ 280

Query (binder): GPRPAAC (Synthetic (GenScript); kept reduced with immobilised TCEP; also called gold standard GPRP mimic; knob 'A' peptide) ; field requested: kon 1140

What kon value was documented for this binder, GPRPFPAC (Synthetic (GenScript); also called knob 'A' peptide) ? 12500
